Source of measurements: ChEMBL document CHEMBL1153179

method: Tmax in cynomolgus monkey at 2 mg/kg, po
Format: ADME, organism-based, Macaca fascicularis
Parameters: dose 2 mg/kg, route oral
test-settings: in vivo
// reported Tmax per item
Hi! Could you send only the number? It should be in h, unit omitted.

smiles-repr	parameter	result-units	reported-measurement
COCCCOc1cc(C[C@@H](C[C@H](N)[C@@H](O)C[C@H](C(=O)NCC(C)(C)C(N)=O)C(C)C)C(C)C)ccc1OC	Tmax	h	1.3

Consider the record given below.
Enquiry: Entry under review: CNC[C@H](CC1CCCCC1)NC(=O)N1CCC[C@@H]([C@@](O)(CCCCOC)c2cccc(Cl)c2)C1 . Reported Tmax?
Return: 2.7

====

assay-target: Renin (Homo sapiens, UniProt P00797)
Sequence (P00797 whole entry): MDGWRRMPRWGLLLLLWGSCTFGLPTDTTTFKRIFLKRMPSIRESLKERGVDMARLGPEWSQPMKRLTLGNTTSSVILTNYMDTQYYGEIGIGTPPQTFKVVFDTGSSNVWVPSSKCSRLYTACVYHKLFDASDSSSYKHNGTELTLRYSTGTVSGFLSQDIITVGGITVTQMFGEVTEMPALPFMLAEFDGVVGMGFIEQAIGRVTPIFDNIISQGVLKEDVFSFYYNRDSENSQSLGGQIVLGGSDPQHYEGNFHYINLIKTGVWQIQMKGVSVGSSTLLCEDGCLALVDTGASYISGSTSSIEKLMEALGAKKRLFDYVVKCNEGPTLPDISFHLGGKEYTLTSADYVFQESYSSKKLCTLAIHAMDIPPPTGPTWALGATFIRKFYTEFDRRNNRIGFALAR
method: Inhibition of human recombinant renin assessed as decrease in plasma renin activity by competitive radioimmunoassay in presence of human plasma
// reported pIC50 per item
Remember, pIC50 is on a log scale: it is -log10 of the molar concentration.

Worked cases, answers included:
smiles-repr	assay-target	pIC50
CNC[C@H](CC1CCCCC1)NC(=O)N1CCC[C@@H]([C@@H](OCCNC(=O)OC)c2cc(Cl)ccc2F)C1	Renin (Homo sapiens, UniProt P00797)	8.68
COC(=O)NCCO[C@@H](c1cccc(F)c1)[C@@H]1CCCN(C(=O)N[C@H](CN)CC2CCCCC2)C1	Renin (Homo sapiens, UniProt P00797)	8.48
CNC[C@H](CC1CCCCC1)NC(=O)N1CCC[C@@H]([C@@H](OCCNC(=O)OC)c2cccc(Cl)c2)C1	Renin (Homo sapiens, UniProt P00797)	9.09

Consider the record given below.
Enquiry: Entry under review: CNC[C@H](CC1CCCCC1)NC(=O)N1CCC[C@@H]([C@@](O)(CCCNC(=O)OC)c2cccc(Cl)c2)C1 . Reported pIC50?
Return: 8.43

====

// reported Vd per item
method: Volume of distribution at steady state in rat at 10 mg/kg, po or 2 mg/kg, iv
Type: ADME, organism-based
test-settings: in vivo, read-out: Vdss
Hi! Could you send only the number? It should be in L/kg, unit omitted.

Worked cases, answers included:
smiles-repr	parameter	reported-measurement
CNC[C@H](CC1CCCCC1)NC(=O)N1CCC[C@@H]([C@@](O)(CCCNC(=O)OC)c2cccc(Cl)c2)C1	Vd	29
CNC[C@H](CC1CCCCC1)NC(=O)N1CCC[C@@H]([C@@H](OCCNC(=O)OC)c2cccc(F)c2)C1	Vd	61
CNC[C@H](CC1CCCCC1)NC(=O)N1CCC[C@@H]([C@@H](OCCNC(=O)OC)c2cccc(Cl)c2)C1	Vd	19
CNC[C@H](CC1CCCCC1)NC(=O)N1CCC[C@@H]([C@@](O)(CCCNC(C)=O)c2cccc(Cl)c2)C1	Vd	117
CNC[C@H](CC1CCCCC1)NC(=O)N1CCC[C@@H]([C@@H](OCCNC(=O)OC)c2cc(F)cc(Cl)c2)C1	Vd	38

Consider the record given below.
Enquiry: Entry under review: COC(=O)NCCO[C@@H](c1cccc(Cl)c1)[C@@H]1CCCN(C(=O)N[C@H](CN)CC2CCCCC2)C1 . Reported Vd?
Return: 51

====

method: Cmax in rat at 10 mg/kg, po
Assay type: ADME, organism-based
Parameters: dose 10 mg/kg, route oral
test-settings: in vivo
parameter: Cmax

smiles-repr	Cmax
CNC[C@H](CC1CCCCC1)NC(=O)N1CCC[C@@H]([C@@](O)(CCCNC(=O)OC)c2cccc(Cl)c2)C1	5 ng/mL

Enquiry: Entry under review: COC(=O)NCCO[C@@H](c1cccc(Cl)c1)[C@@H]1CCCN(C(=O)N[C@H](CN)CC2CCCCC2)C1 . Reported Cmax?
Return: 63 ng/mL

Enquiry: Query CNC[C@H](CC1CCCCC1)NC(=O)N1CCC[C@@H]([C@@H](OCCNC(=O)OC)c2cccc(F)c2)C1 next
Return: 123 ng/mL

Enquiry: Query CNC[C@H](CC1CCCCC1)NC(=O)N1CCC[C@@H]([C@@H](OCCNC(=O)OC)c2cc(F)cc(Cl)c2)C1 next
Return: 54 ng/mL

Enquiry: Query CNC[C@H](CC1CCCCC1)NC(=O)N1CCC[C@@H]([C@@H](OCCNC(=O)OC)c2cccc(Cl)c2)C1 next
Return: 94 ng/mL

====

method: AUC (0 to 32 hrs) in cynomolgus monkey at 2 mg/kg, po
Format: ADME, organism-based, Macaca fascicularis
Parameters: time < 32 hr, dose 2 mg/kg, route oral
test-settings: plasma
parameter: AUC(0-t) at 32 h (µg·h/mL)
Hi! Could you send only the number? It should be in µg·h/mL, unit omitted.

Enquiry: Entry under review: CNC[C@H](CC1CCCCC1)NC(=O)N1CCC[C@@H]([C@@](O)(CCCCOC)c2cccc(Cl)c2)C1 . Reported AUC(0-t) at 32 h?
Return: 0.615

====

method: Oral bioavailability in cynomolgus monkey at 1 mg/kg
Format: ADME, organism-based, Macaca fascicularis
test-settings: in vivo
parameter: bioavailability (%)
Hi! Could you send only the number? It should be in %, unit omitted.

Enquiry: Entry under review: CNC[C@H](CC1CCCCC1)NC(=O)N1CCC[C@@H]([C@@H](OCCNC(=O)OC)c2cccc(Cl)c2)C1 . Reported bioavailability?
Return: 9.9

====

// reported half-life per item
method: Half life in cynomolgus monkey at 2 mg/kg, po
Format: ADME, organism-based, Macaca fascicularis
Set-up: dose 2 mg/kg, route oral
test-settings: in vivo
Hi! Could you send only the number? It should be in h, unit omitted.

smiles-repr	result-units	half-life
CNC[C@H](CC1CCCCC1)NC(=O)N1CCC[C@@H]([C@@](O)(CCCCOC)c2cccc(Cl)c2)C1	h	15

Enquiry: Entry under review: COCCCOc1cc(C[C@@H](C[C@H](N)[C@@H](O)C[C@H](C(=O)NCC(C)(C)C(N)=O)C(C)C)C(C)C)ccc1OC . Reported half-life?
Return: 9.8

====

method: Oral bioavailability in cynomolgus monkey at 2 mg/kg
Format: ADME, organism-based, Macaca fascicularis
test-settings: in vivo
// reported bioavailability per item
Hi! Could you send only the number? It should be in %, unit omitted.

smiles-repr	result-units	reported-measurement
COCCCOc1cc(C[C@@H](C[C@H](N)[C@@H](O)C[C@H](C(=O)NCC(C)(C)C(N)=O)C(C)C)C(C)C)ccc1OC	%	1.4

Consider the record given below.
Enquiry: Entry under review: CNC[C@H](CC1CCCCC1)NC(=O)N1CCC[C@@H]([C@@](O)(CCCCOC)c2cccc(Cl)c2)C1 . Reported bioavailability?
Return: 16

====

assay-target: Renin (Homo sapiens, UniProt P00797)
method: Inhibition of trypsin-activated human recombinant renin
parameter: pIC50
Remember, pIC50 is on a log scale: it is -log10 of the molar concentration.

Worked cases, answers included:
smiles-repr	pIC50
COC(=O)NCCO[C@@H](c1cccc(Cl)c1)[C@@H]1CCCN(C(=O)N[C@H](CN)CC2CCCCC2)C1	9.32
CNC[C@H](CC1CCCCC1)NC(=O)N1CCC[C@@H]([C@@H](OCCNC(=O)OC)c2cc(F)ccc2F)C1	9.21
CCC(=O)NCCC[C@@](O)(c1cccc(Cl)c1)[C@@H]1CCCN(C(=O)N[C@H](CNC)CC2CCCCC2)C1	8.82
CCOC(=O)NCCC[C@@](O)(c1cccc(Cl)c1)[C@@H]1CCCN(C(=O)N[C@H](CNC)CC2CCCCC2)C1	7.85
CNC[C@H](CC1CCCCC1)NC(=O)N1CCC[C@@H]([C@@H](OCCNC(=O)OC)c2cccc(Cl)c2)C1	9.32

Enquiry: Entry under review: CNC[C@H](CC1CCCCC1)NC(=O)N1CCC[C@@H]([C@@H](OCCNC(=O)OC)c2ccccc2)C1 . Reported pIC50?
Return: 8.93

Enquiry: Query CCNC[C@H](CC1CCCCC1)NC(=O)N1CCC[C@@H]([C@@H](OCCNC(=O)OC)c2cccc(Cl)c2)C1 next
Return: 9.06

====

method: AUC (0 to t) in cynomolgus monkey at 2 mg/kg, po
Assay type: ADME, organism-based, Macaca fascicularis
Set-up: dose 2 mg/kg, route oral
test-settings: plasma
parameter: AUC(0-t)

Enquiry: Entry under review: COCCCOc1cc(C[C@@H](C[C@H](N)[C@@H](O)C[C@H](C(=O)NCC(C)(C)C(N)=O)C(C)C)C(C)C)ccc1OC . Reported AUC(0-t)?
Return: 154 ng·h/mL

====

method: Clearance in cynomolgus monkey at 1 mg/kg, iv
Format: ADME, organism-based, Macaca fascicularis
Parameters: dose 1 mg/kg, route intravenous
test-settings: in vivo
parameter: clearance (mL/min/kg)
Hi! Could you send only the number? It should be in mL/min/kg, unit omitted.

Worked cases, answers included:
smiles-repr	parameter	reported-measurement
CNC[C@H](CC1CCCCC1)NC(=O)N1CCC[C@@H]([C@@H](OCCNC(=O)OC)c2cccc(Cl)c2)C1	clearance	11.7
COCCCOc1cc(C[C@@H](C[C@H](N)[C@@H](O)C[C@H](C(=O)NCC(C)(C)C(N)=O)C(C)C)C(C)C)ccc1OC	clearance	2.5

Consider the record given below.
Enquiry: Entry under review: CNC[C@H](CC1CCCCC1)NC(=O)N1CCC[C@@H]([C@@](O)(CCCCOC)c2cccc(Cl)c2)C1 . Reported clearance?
Return: 5.2
